assay target: CDK2 (human) (UniProt P24941)
assay details: Enzyme Assay
condition parameters: concentration not given here
Using inhibition as the sorting value, the categories are bottom bin = under 50%, middle bin = from 50% up to 60%, top bin = 60% and over

Nc1nc(NC2CCN(C(=O)COc3ccccc3O)CC2)sc1C(=O)c1c(F)cccc1F; top bin
CC(=O)Nc1cc(C(=O)N2CCC(Nc3nc(N)c(C(=O)c4c(F)cccc4F)s3)CC2)ccc1C; top bin

Input line: Which class holds `Cc1ccc(C2(C(=O)N3CCC(Nc4nc(N)c(C(=O)c5c(F)cccc5F)s4)CC3)CC2)cc1` ?
Output line: bottom bin

Input line: Which class holds `Cc1ccoc1C(=O)N1CCC(Nc2nc(N)c(C(=O)c3c(F)cccc3F)s2)CC1` ?
Output line: bottom bin

Input line: Which class holds `Nc1nc(NC2CCN(C(=O)c3ccsc3)CC2)sc1C(=O)c1c(F)cccc1F` ?
Output line: middle bin

Input line: Which class holds CC(C(=O)N1CCC(Nc2nc(N)c(C(=O)c3c(F)cccc3F)s2)CC1)c1ccc(Cl)cc1 (centres undefined) ?
Output line: bottom bin

* * *

Examples of compounds with documented inhibition follow.
assay target: CDK2 (human)
assay details: Enzyme Assay
condition parameters: concentration not given here
Numeric only. Scale: %

Cc1cccc(CC(=O)N2CCC(Nc3nc(N)c(C(=O)c4c(F)cccc4F)s3)CC2)c1; 55
Cc1cc(C)c(C(=O)N2CCC(Nc3nc(N)c(C(=O)c4c(F)cccc4F)s3)CC2)cc1C; 44
Nc1nc(NC2CCN(C(=O)c3ccc(C(F)(F)F)cc3C(F)(F)F)CC2)sc1C(=O)c1c(F)cccc1F; 0

Input line: Lab note: need inhibition with CDK2 (human) for entry `COc1cccc(OCC(=O)N2CCC(Nc3nc(N)c(C(=O)c4c(F)cccc4F)s3)CC2)c1` , please look it up.
Output line: 61

Input line: Lab note: need inhibition with CDK2 (human) for entry `Nc1nc(NC2CCN(C(=O)c3ccc4c(c3)CCO4)CC2)sc1C(=O)c1c(F)cccc1F` , please look it up.
Output line: 83

Input line: Lab note: need inhibition with CDK2 (human) for entry `CC(=O)N1CSC[C@H]1C(=O)N1CCC(Nc2nc(N)c(C(=O)c3c(F)cccc3F)s2)CC1` , please look it up.
Output line: 20

Input line: Lab note: need inhibition with CDK2 (human) for entry `C/C=C/C(=O)N1CCC(Nc2nc(N)c(C(=O)c3c(F)cccc3F)s2)CC1` , please look it up.
Output line: -9

Input line: Lab note: need inhibition with CDK2 (human) for entry `Cc1ccc(/C=C/C(=O)N2CCC(Nc3nc(N)c(C(=O)c4c(F)cccc4F)s3)CC2)c(C)c1` , please look it up.
Output line: 31

* * *

assay target: CDK2 (human) (UniProt P24941)
assay details: Enzyme Assay
condition parameters: concentration not given here
Using inhibition as the sorting value, the categories are lower range (below 30%), middle range (30% to below 70%), upper range (70% or more)

# example entries with known answers
Nc1nc(NC2CCN(C(=O)Cc3cccs3)CC2)sc1C(=O)c1c(F)cccc1F; upper range
CCCCC[C@H]1CC[C@H](C(=O)N2CCC(Nc3nc(N)c(C(=O)c4c(F)cccc4F)s3)CC2)CC1; lower range
Cc1ccc(C(=O)/C=C/C(=O)N2CCC(Nc3nc(N)c(C(=O)c4c(F)cccc4F)s3)CC2)cc1; upper range
Nc1nc(NC2CCN(C(=O)Cc3cccc4ccccc34)CC2)sc1C(=O)c1c(F)cccc1F; middle range
Nc1nc(NC2CCN(C(=O)C(O)Cc3ccc(O)cc3)CC2)sc1C(=O)c1c(F)cccc1F (centres undefined); middle range
Nc1nc(NC2CCN(C(=O)CCCCc3ccccc3)CC2)sc1C(=O)c1c(F)cccc1F; middle range

Input line: Which class holds `Nc1nc(NC2CCN(C(=O)[C@H](O)C3CCCCC3)CC2)sc1C(=O)c1c(F)cccc1F` ?
Output line: lower range

Input line: Which class holds `Nc1nc(NC2CCN(C(=O)c3ccc(-n4cccc4)nc3)CC2)sc1C(=O)c1c(F)cccc1F` ?
Output line: middle range

* * *

assay target: CDK2 (human)
assay details: Enzyme Assay
condition parameters: concentration not given here
inhibition below 50% gives Not met; inhibition at or above it gives Met.

# example entries with known answers
Nc1nc(NC2CCN(S(=O)(=O)c3ccc(O)c(C(=O)O)c3)CC2)sc1C(=O)c1c(F)cccc1F; Not met
CCOCC(=O)N1CCC(Nc2nc(N)c(C(=O)c3c(F)cccc3F)s2)CC1; Met
CC(C)Oc1ccc(C(=O)N2CCC(Nc3nc(N)c(C(=O)c4c(F)cccc4F)s3)CC2)cc1; Not met

Input line: Record `COC(=O)CCCCC(=O)N1CCC(Nc2nc(N)c(C(=O)c3c(F)cccc3F)s2)CC1` ; criterion: inhibition no lower than 50%. Met?
Output line: Not met

Input line: Record `Nc1nc(NC2CCN(C(=O)COc3ccc([N+](=O)[O-])cc3)CC2)sc1C(=O)c1c(F)cccc1F` ; criterion: inhibition no lower than 50%. Met?
Output line: Met

Input line: Record `Nc1nc(NC2CCN(C(=O)CCCc3ccccc3)CC2)sc1C(=O)c1c(F)cccc1F` ; criterion: inhibition no lower than 50%. Met?
Output line: Not met

Input line: Record `CCCOc1ccc(C(=O)N2CCC(Nc3nc(N)c(C(=O)c4c(F)cccc4F)s3)CC2)cc1` ; criterion: inhibition no lower than 50%. Met?
Output line: Met

Input line: Record `Nc1nc(NC2CCN(C(=O)c3ccccc3OC(F)(F)F)CC2)sc1C(=O)c1c(F)cccc1F` ; criterion: inhibition no lower than 50%. Met?
Output line: Not met

* * *

Examples of molecules with documented inhibition follow.
assay target: CDK2 (human) (UniProt P24941)
assay details: Enzyme Assay
condition parameters: concentration not given here
Numeric only. Scale: %

Example entries and their recorded answers appear below.
CC(=O)/C=C/C(=O)N1CCC(Nc2nc(N)c(C(=O)c3c(F)cccc3F)s2)CC1; 5
CCOC(=O)CC(=O)N1CCC(Nc2nc(N)c(C(=O)c3c(F)cccc3F)s2)CC1; -13
CN(C)[C@@H](Cc1ccccc1)C(=O)N1CCC(Nc2nc(N)c(C(=O)c3c(F)cccc3F)s2)CC1; 10

Input line: May I ask what inhibition has been recorded for `CCCC/C=C/CC(=O)N1CCC(Nc2nc(N)c(C(=O)c3c(F)cccc3F)s2)CC1` ?
Output line: 22

Input line: May I ask what inhibition has been recorded for CN1CC(C(=O)N2CCC(Nc3nc(N)c(C(=O)c4c(F)cccc4F)s3)CC2)CC1=O (stereo not given) ?
Output line: 41

* * *

assay target: CDK2 (human) (UniProt P24941)
assay details: Enzyme Assay
condition parameters: concentration not given here
property name: inhibition (%)
Numeric only. Scale: %

Example entries and their recorded answers appear below.
C=CCCC(=O)N1CCC(Nc2nc(N)c(C(=O)c3c(F)cccc3F)s2)CC1; 68
Nc1nc(NC2CCN(C(=O)c3cc4ccccc4o3)CC2)sc1C(=O)c1c(F)cccc1F; 64
C=CCSc1ncccc1C(=O)N1CCC(Nc2nc(N)c(C(=O)c3c(F)cccc3F)s2)CC1; 48
C=CCCCCC(=O)N1CCC(Nc2nc(N)c(C(=O)c3c(F)cccc3F)s2)CC1; 16
Nc1nc(NC2CCN(C(=O)c3cnnc4ccccc34)CC2)sc1C(=O)c1c(F)cccc1F; 28
N#Cc1ccc(/C=C/C(=O)N2CCC(Nc3nc(N)c(C(=O)c4c(F)cccc4F)s3)CC2)cc1; 41
CCCCC(C)C(=O)N1CCC(Nc2nc(N)c(C(=O)c3c(F)cccc3F)s2)CC1 (stereo not drawn); -2
Cn1c(C(=O)N2CCC(Nc3nc(N)c(C(=O)c4c(F)cccc4F)s3)CC2)cc2ccccc21; 61

Input line: Lab note: need inhibition with CDK2 (human) (UniProt P24941) for entry `Cc1ccc(OCC(=O)N2CCC(Nc3nc(N)c(C(=O)c4c(F)cccc4F)s3)CC2)cc1` , please look it up.
Output line: 57

Input line: Lab note: need inhibition with CDK2 (human) (UniProt P24941) for entry `Cc1c(S(=O)(=O)c2ccc(Cl)cc2)csc1C(=O)N1CCC(Nc2nc(N)c(C(=O)c3c(F)cccc3F)s2)CC1` , please look it up.
Output line: -7

Input line: Lab note: need inhibition with CDK2 (human) (UniProt P24941) for entry CC(C)(C)C1CCC(C(=O)N2CCC(Nc3nc(N)c(C(=O)c4c(F)cccc4F)s3)CC2)CC1 (stereo not drawn) , please look it up.
Output line: 34

Input line: Lab note: need inhibition with CDK2 (human) (UniProt P24941) for entry `Nc1nc(NC2CCN(C(=O)c3ccc(F)c4ccccc34)CC2)sc1C(=O)c1c(F)cccc1F` , please look it up.
Output line: 30

* * *

Examples of compounds with documented inhibition follow.
assay target: UniProtKB P24941
assay details: Enzyme Assay
condition parameters: concentration not given here

Example entries and their recorded answers appear below.
Nc1nc(NC2CCN(S(=O)(=O)c3ccc(Sc4ccncc4)cc3)CC2)sc1C(=O)c1c(F)cccc1F; -25%
Nc1nc(NC2CCN(C(=O)C3CCOC3)CC2)sc1C(=O)c1c(F)cccc1F (stereo unspecified); 81%
CCOC(=O)C(=O)N1CCC(Nc2nc(N)c(C(=O)c3c(F)cccc3F)s2)CC1; -13%
Cc1c(S(=O)(=O)N2CCC(Nc3nc(N)c(C(=O)c4c(F)cccc4F)s3)CC2)sc2ccc(Cl)cc12; -2%
CC1(C)C2CC[C@]1(CS(=O)(=O)N1CCC(Nc3nc(N)c(C(=O)c4c(F)cccc4F)s3)CC1)C(=O)C2; -1%
CC1(C)OC(=O)CC1C(=O)N1CCC(Nc2nc(N)c(C(=O)c3c(F)cccc3F)s2)CC1 (stereo unspecified); 79%
Cc1cnc(C(=O)N2CCC(Nc3nc(N)c(C(=O)c4c(F)cccc4F)s3)CC2)cn1; 72%
Cc1ncccc1C(=O)N1CCC(Nc2nc(N)c(C(=O)c3c(F)cccc3F)s2)CC1; 52%

Input line: May I ask what inhibition has been recorded for `Cc1cccc(OCC(=O)N2CCC(Nc3nc(N)c(C(=O)c4c(F)cccc4F)s3)CC2)c1` ?
Output line: 70%

Input line: May I ask what inhibition has been recorded for `Nc1nc(NC2CCN(C(=O)CCC(=O)c3cccs3)CC2)sc1C(=O)c1c(F)cccc1F` ?
Output line: 63%

Input line: May I ask what inhibition has been recorded for `Nc1nc(NC2CCN(C(=O)Cn3cnnn3)CC2)sc1C(=O)c1c(F)cccc1F` ?
Output line: 87%

Input line: May I ask what inhibition has been recorded for `COc1cscc1C(=O)N1CCC(Nc2nc(N)c(C(=O)c3c(F)cccc3F)s2)CC1` ?
Output line: 58%

Input line: May I ask what inhibition has been recorded for `Nc1nc(NC2CCN(C(=O)CN3C(=O)CSC3=S)CC2)sc1C(=O)c1c(F)cccc1F` ?
Output line: 64%

Input line: May I ask what inhibition has been recorded for `CCOCCC(=O)N1CCC(Nc2nc(N)c(C(=O)c3c(F)cccc3F)s2)CC1` ?
Output line: 18%

Input line: May I ask what inhibition has been recorded for `COc1ccc2oc(C(=O)N3CCC(Nc4nc(N)c(C(=O)c5c(F)cccc5F)s4)CC3)cc2c1` ?
Output line: 61%

Input line: May I ask what inhibition has been recorded for `Nc1nc(NC2CCN(C(=O)/C=C/c3ccccc3F)CC2)sc1C(=O)c1c(F)cccc1F` ?
Output line: 71%

Input line: May I ask what inhibition has been recorded for `Cn1cccc1C(=O)N1CCC(Nc2nc(N)c(C(=O)c3c(F)cccc3F)s2)CC1` ?
Output line: 38%

Input line: May I ask what inhibition has been recorded for CSCCC(O)C(=O)N1CCC(Nc2nc(N)c(C(=O)c3c(F)cccc3F)s2)CC1 (stereo unspecified) ?
Output line: 65%

Input line: May I ask what inhibition has been recorded for `Cc1cc(C(=O)N2CCC(Nc3nc(N)c(C(=O)c4c(F)cccc4F)s3)CC2)ccc1Cl` ?
Output line: 51%
